FYI, the data here is from patent US9649309B2.

Molecular target: Axl (Homo sapiens (Human))
Sequence (P30530 26-894 limits assumed): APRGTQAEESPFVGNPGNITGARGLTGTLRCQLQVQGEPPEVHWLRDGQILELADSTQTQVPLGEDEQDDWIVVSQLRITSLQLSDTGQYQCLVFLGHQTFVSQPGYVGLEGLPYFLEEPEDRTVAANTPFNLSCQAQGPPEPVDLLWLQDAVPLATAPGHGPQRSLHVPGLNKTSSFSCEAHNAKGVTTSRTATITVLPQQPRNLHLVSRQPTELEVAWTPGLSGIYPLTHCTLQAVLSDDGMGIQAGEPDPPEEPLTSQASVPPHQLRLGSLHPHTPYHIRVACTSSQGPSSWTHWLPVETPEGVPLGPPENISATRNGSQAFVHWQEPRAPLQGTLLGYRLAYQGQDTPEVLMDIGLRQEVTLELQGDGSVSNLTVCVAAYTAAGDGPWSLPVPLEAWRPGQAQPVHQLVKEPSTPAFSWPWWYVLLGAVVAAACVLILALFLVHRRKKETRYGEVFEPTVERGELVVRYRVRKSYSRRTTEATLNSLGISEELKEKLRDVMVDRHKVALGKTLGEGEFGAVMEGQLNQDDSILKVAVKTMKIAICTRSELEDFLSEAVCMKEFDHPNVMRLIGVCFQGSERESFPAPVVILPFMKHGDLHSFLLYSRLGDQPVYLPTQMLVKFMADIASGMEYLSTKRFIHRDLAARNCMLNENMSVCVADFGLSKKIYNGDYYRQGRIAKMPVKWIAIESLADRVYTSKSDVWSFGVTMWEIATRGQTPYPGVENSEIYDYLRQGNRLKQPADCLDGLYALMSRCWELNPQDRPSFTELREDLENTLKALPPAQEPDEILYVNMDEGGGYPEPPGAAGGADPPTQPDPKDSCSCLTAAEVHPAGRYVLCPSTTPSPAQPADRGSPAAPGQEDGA
Conditions: read-out: IC50 Axl
Readings of log10 of IC50 for the listed compounds
The common logarithm of IC50 in nM is what is listed.

Solved entries:
CCCCNc1ncc(-c2ccc(C3=CCNCC3)cn2)c(N[C@H]2CC[C@H](O)CC2)n1 [UNC4354A] :: 1.43
CCCCNc1ncc(C(=O)NCc2cccc3ccccc23)c(N[C@H]2CC[C@H](O)CC2)n1 [UNC2763A] :: 3.04
CCCCNc1ncc(-c2cc(NC(=O)c3ccc(F)cc3)ncn2)c(N[C@H]2CC[C@H](O)CC2)n1 [UNC3182A] :: 4.48
CCCCNc1ncc(-c2cncc(NC3CCCCC3)n2)c(N[C@H]2CC[C@H](O)CC2)n1 [UNC3137A] :: 3.09
CCCCNc1ncc(C(=O)NCc2ccc(-c3c(C)noc3C)nc2)c(N[C@H]2CC[C@H](O)CC2)n1 [UNC4260A] :: 2.78
CCCCNc1ncc(-c2ccc(CNC3CC4CCC(C3)N4C)cn2)c(N[C@H]2CC[C@H](O)CC2)n1 (some centres unmarked) [UNC4163A] :: 1.30
CCCCNc1ncc(-c2ccc(C=C3CCNCC3)cn2)c(N[C@H]2CC[C@H](O)CC2)n1 [UNC4336A] :: 1.60

Data request: What log10 of IC50 value was documented for this compound, CCCCNc1ncc(-c2ncc(C(=O)O)s2)c(N[C@H]2CC[C@H](O)CC2)n1 [UNC3331A] ?
Data returned: 2.62
